measurement-context: in acetone, 278.15 K
observation-type: solubility (mole fraction)
// no unit, no text: just the number

Q: I would be grateful if you could share the reported solubility (mole fraction) for CC#C[C@]1(O)CC[C@H]2[C@@H]3CCC4=CC(=O)CCC4=C3[C@@H](c3ccc(N(C)C)cc3)C[C@@]21C .
Result: 0.000184

---

measurement-context: in methanol, 303.15 K
observation-type: solubility (mole fraction)
// no unit, no text: just the number

Q: I would be grateful if you could share the reported solubility (mole fraction) for CC#C[C@]1(O)CC[C@H]2[C@@H]3CCC4=CC(=O)CCC4=C3[C@@H](c3ccc(N(C)C)cc3)C[C@@]21C .
Result: 0.0021

---

measurement-context: in acetone, 303.15 K
observation-type: solubility (mole fraction)
// no unit, no text: just the number

Q: I would be grateful if you could share the reported solubility (mole fraction) for CC#C[C@]1(O)CC[C@H]2[C@@H]3CCC4=CC(=O)CCC4=C3[C@@H](c3ccc(N(C)C)cc3)C[C@@]21C .
Result: 0.000516

---

measurement-context: in THF, 278.15 K
observation-type: solubility (mole fraction)
// no unit, no text: just the number

Q: I would be grateful if you could share the reported solubility (mole fraction) for CC#C[C@]1(O)CC[C@H]2[C@@H]3CCC4=CC(=O)CCC4=C3[C@@H](c3ccc(N(C)C)cc3)C[C@@]21C .
Result: 6e-05

---

measurement-context: in acetone, 283.15 K
observation-type: solubility (mole fraction)
// no unit, no text: just the number

Q: I would be grateful if you could share the reported solubility (mole fraction) for CC#C[C@]1(O)CC[C@H]2[C@@H]3CCC4=CC(=O)CCC4=C3[C@@H](c3ccc(N(C)C)cc3)C[C@@]21C .
Result: 0.000228

---

measurement-context: in acetone, 308.15 K
observation-type: solubility (mole fraction)
// no unit, no text: just the number

Q: I would be grateful if you could share the reported solubility (mole fraction) for CC#C[C@]1(O)CC[C@H]2[C@@H]3CCC4=CC(=O)CCC4=C3[C@@H](c3ccc(N(C)C)cc3)C[C@@]21C .
Result: 0.000628

---

measurement-context: in isopropanol, 313.15 K
observation-type: solubility (mole fraction)
// no unit, no text: just the number

Q: I would be grateful if you could share the reported solubility (mole fraction) for CC#C[C@]1(O)CC[C@H]2[C@@H]3CCC4=CC(=O)CCC4=C3[C@@H](c3ccc(N(C)C)cc3)C[C@@]21C .
Result: 0.00146

---

measurement-context: in isopropanol, 288.15 K
observation-type: solubility (mole fraction)
// no unit, no text: just the number

Q: I would be grateful if you could share the reported solubility (mole fraction) for CC#C[C@]1(O)CC[C@H]2[C@@H]3CCC4=CC(=O)CCC4=C3[C@@H](c3ccc(N(C)C)cc3)C[C@@]21C .
Result: 0.000244

---

measurement-context: in ethyl acetate, 313.15 K
observation-type: solubility (mole fraction)
// no unit, no text: just the number

Q: I would be grateful if you could share the reported solubility (mole fraction) for CC#C[C@]1(O)CC[C@H]2[C@@H]3CCC4=CC(=O)CCC4=C3[C@@H](c3ccc(N(C)C)cc3)C[C@@]21C .
Result: 0.000471

---

measurement-context: in ethanol, 303.15 K
observation-type: solubility (mole fraction)
// no unit, no text: just the number

Q: I would be grateful if you could share the reported solubility (mole fraction) for CC#C[C@]1(O)CC[C@H]2[C@@H]3CCC4=CC(=O)CCC4=C3[C@@H](c3ccc(N(C)C)cc3)C[C@@]21C .
Result: 0.000341

---

measurement-context: in ethyl acetate, 318.15 K
observation-type: solubility (mole fraction)
// no unit, no text: just the number

Q: I would be grateful if you could share the reported solubility (mole fraction) for CC#C[C@]1(O)CC[C@H]2[C@@H]3CCC4=CC(=O)CCC4=C3[C@@H](c3ccc(N(C)C)cc3)C[C@@]21C .
Result: 0.000565

---

measurement-context: in isopropanol, 273.15 K
observation-type: solubility (mole fraction)
// no unit, no text: just the number

Q: I would be grateful if you could share the reported solubility (mole fraction) for CC#C[C@]1(O)CC[C@H]2[C@@H]3CCC4=CC(=O)CCC4=C3[C@@H](c3ccc(N(C)C)cc3)C[C@@]21C .
Result: 7.13e-05

---

measurement-context: in THF, 273.15 K
observation-type: solubility (mole fraction)
// no unit, no text: just the number

Q: I would be grateful if you could share the reported solubility (mole fraction) for CC#C[C@]1(O)CC[C@H]2[C@@H]3CCC4=CC(=O)CCC4=C3[C@@H](c3ccc(N(C)C)cc3)C[C@@]21C .
Result: 5.16e-05

---

measurement-context: in n-propanol, 293.15 K
observation-type: solubility (mole fraction)
// no unit, no text: just the number

Q: I would be grateful if you could share the reported solubility (mole fraction) for CC#C[C@]1(O)CC[C@H]2[C@@H]3CCC4=CC(=O)CCC4=C3[C@@H](c3ccc(N(C)C)cc3)C[C@@]21C .
Result: 0.000266

---

measurement-context: in ethanol, 288.15 K
observation-type: solubility (mole fraction)
// no unit, no text: just the number

Q: I would be grateful if you could share the reported solubility (mole fraction) for CC#C[C@]1(O)CC[C@H]2[C@@H]3CCC4=CC(=O)CCC4=C3[C@@H](c3ccc(N(C)C)cc3)C[C@@]21C .
Result: 0.000206

---

measurement-context: in methanol, 293.15 K
observation-type: solubility (mole fraction)
// no unit, no text: just the number

Q: I would be grateful if you could share the reported solubility (mole fraction) for CC#C[C@]1(O)CC[C@H]2[C@@H]3CCC4=CC(=O)CCC4=C3[C@@H](c3ccc(N(C)C)cc3)C[C@@]21C .
Result: 0.00128

---

measurement-context: in acetone, 318.15 K
observation-type: solubility (mole fraction)
// no unit, no text: just the number

Q: I would be grateful if you could share the reported solubility (mole fraction) for CC#C[C@]1(O)CC[C@H]2[C@@H]3CCC4=CC(=O)CCC4=C3[C@@H](c3ccc(N(C)C)cc3)C[C@@]21C .
Result: 0.000922

---

measurement-context: in n-propanol, 283.15 K
observation-type: solubility (mole fraction)
// no unit, no text: just the number

Q: I would be grateful if you could share the reported solubility (mole fraction) for CC#C[C@]1(O)CC[C@H]2[C@@H]3CCC4=CC(=O)CCC4=C3[C@@H](c3ccc(N(C)C)cc3)C[C@@]21C .
Result: 0.000192

---

measurement-context: in acetone, 313.15 K
observation-type: solubility (mole fraction)
// no unit, no text: just the number

Q: I would be grateful if you could share the reported solubility (mole fraction) for CC#C[C@]1(O)CC[C@H]2[C@@H]3CCC4=CC(=O)CCC4=C3[C@@H](c3ccc(N(C)C)cc3)C[C@@]21C .
Result: 0.000762

---

measurement-context: in isopropanol, 278.15 K
observation-type: solubility (mole fraction)
// no unit, no text: just the number

Q: I would be grateful if you could share the reported solubility (mole fraction) for CC#C[C@]1(O)CC[C@H]2[C@@H]3CCC4=CC(=O)CCC4=C3[C@@H](c3ccc(N(C)C)cc3)C[C@@]21C .
Result: 0.000109

---

measurement-context: in ethyl acetate, 278.15 K
observation-type: solubility (mole fraction)
// no unit, no text: just the number

Q: I would be grateful if you could share the reported solubility (mole fraction) for CC#C[C@]1(O)CC[C@H]2[C@@H]3CCC4=CC(=O)CCC4=C3[C@@H](c3ccc(N(C)C)cc3)C[C@@]21C .
Result: 0.000125

---

measurement-context: in n-propanol, 273.15 K
observation-type: solubility (mole fraction)
// no unit, no text: just the number

Q: I would be grateful if you could share the reported solubility (mole fraction) for CC#C[C@]1(O)CC[C@H]2[C@@H]3CCC4=CC(=O)CCC4=C3[C@@H](c3ccc(N(C)C)cc3)C[C@@]21C .
Result: 0.000138

---

measurement-context: in acetone, 273.15 K
observation-type: solubility (mole fraction)
// no unit, no text: just the number

Q: I would be grateful if you could share the reported solubility (mole fraction) for CC#C[C@]1(O)CC[C@H]2[C@@H]3CCC4=CC(=O)CCC4=C3[C@@H](c3ccc(N(C)C)cc3)C[C@@]21C .
Result: 0.000149

---

measurement-context: in ethyl acetate, 293.15 K
observation-type: solubility (mole fraction)
// no unit, no text: just the number

Q: I would be grateful if you could share the reported solubility (mole fraction) for CC#C[C@]1(O)CC[C@H]2[C@@H]3CCC4=CC(=O)CCC4=C3[C@@H](c3ccc(N(C)C)cc3)C[C@@]21C .
Result: 0.000223
